biological target: T1, hRET.mFc (human); assay: SPR Biacore T200, mAb capture, 25 C
T1 construct: also called dimeric human RET

{"binder": "H4H8056P (antibody, human IgG4, V domains shown, human IgG4 Fc (H4H prefix)) VH: QVQLVESGGGVVQPGRSLRLSCAASGFTFRNYGMHWVRQAPGKGLEWVAVKRYDGSDEYFVDSVKGRFTISRDNSKNTLFLQMNSLRVDDTAVYYCARETPITGTTLDYWGQGTLVTVSS VL: DIQMTQSPSSLSASVGDRVTITCRTSQSITNYLNWYQQKPGKAPKLLIYAASRSQSGVPSRFSGSGSGTDFTLTISSLQPEDFATYYCQQSYSTPLTFGGGTKVEIK", "kon": "185000 M⁻¹ s⁻¹"}
